What follows is a record of pIC50 for TYK2 (Homo sapiens, UniProt P29597).
Give bare numbers, as −log10 of the molar value.

Before answering, review these 3 worked examples.
INSERT INTO measurements (compound, experimental_target, reported_endpoint, numeric_value) VALUES
  ('[2H]C([2H])([2H])C([2H])([2H])c1cc(O)c(F)cc1-c1ccc2c(-c3nc4c([nH]3)CN(C(=O)N(C)C)C4)n[nH]c2c1 [Compound 32]', 'TYK2 (Homo sapiens, UniProt P29597)', 'pIC50', 9.52),
  ('[2H]C([2H])([2H])C([2H])([2H])c1cc(O)c(F)cc1-c1ccc2c(-c3nc4c([nH]3)CN(C(=O)N3CC[C@H](O)C3)C4)n[nH]c2c1 [Compound 3, methanesulfonate]', 'TYK2 (Homo sapiens, UniProt P29597)', 'pIC50', 10.66),
  ('[2H]C([2H])([2H])c1cc(O)c(F)cc1-c1ccc2c(-c3nc4c([nH]3)CN(CC(C)O)C4)n[nH]c2c1 (stereo in doubt) [Compound 28]', 'TYK2 (Homo sapiens, UniProt P29597)', 'pIC50', 8.19);

For every record below, what is its pIC50?
1. [2H]C([2H])([2H])c1cc(O)c(F)cc1-c1ccc2c(-c3nc4c([nH]3)CN(C(=O)N3CC[C@@H](O)C3)C4)n[nH]c2c1 [Compound 8]
2. [2H]C([2H])([2H])c1cc(O)c(F)cc1-c1ccc2c(-c3nc4c([nH]3)CN(C(=O)NCCCO)C4)n[nH]c2c1 [Compound 7]

stdout:
[9.72, 9.28]
